System Under Test: inosine-guanosine kinase (Escherichia coli, UniProt P0AEW6)
Construct: made in house; host or cells: Escherichia coli
Sequence (P0AEW6 1-434): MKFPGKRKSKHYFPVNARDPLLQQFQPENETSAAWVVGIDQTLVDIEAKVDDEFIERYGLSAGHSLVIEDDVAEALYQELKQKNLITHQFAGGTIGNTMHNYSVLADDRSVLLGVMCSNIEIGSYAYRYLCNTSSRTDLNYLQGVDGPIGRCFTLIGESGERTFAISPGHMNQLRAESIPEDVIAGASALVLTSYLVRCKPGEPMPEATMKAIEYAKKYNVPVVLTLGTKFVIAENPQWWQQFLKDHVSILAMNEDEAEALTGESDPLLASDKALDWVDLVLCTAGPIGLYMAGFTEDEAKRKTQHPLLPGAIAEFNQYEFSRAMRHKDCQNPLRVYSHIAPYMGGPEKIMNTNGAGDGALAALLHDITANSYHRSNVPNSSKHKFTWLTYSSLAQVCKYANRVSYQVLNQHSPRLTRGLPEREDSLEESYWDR
Assay Name: Activation of inosine-guanosine kinase by divalent or trivalent metal ion salts instead of MgSO4
Assay type: biochemical
Condition Context: 10 mM metal salt instead of MgSO4, 300 mM KCl
Below, each entry is listed alongside its reported Produced IMP.
Write the value in mM as a bare number.

[Cl][Cu][Cl] [CuCl2]    0

In: Given [Ca+2].[Cl-].[Cl-] [CaCl2] , respond with its Produced IMP.
Out: 0

In: Given [Cl][Fe][Cl] [FeCl2] , respond with its Produced IMP.
Out: 0

In: Given O=S(=O)([O-])[O-].[Zn+2] [ZnSO4] , respond with its Produced IMP.
Out: 0

In: Given O=S(=O)([O-])[O-].[Mg+2] [MgSO4] , respond with its Produced IMP.
Out: 0.68

In: Given [Cl][Fe]([Cl])[Cl] [FeCl3] , respond with its Produced IMP.
Out: 0

In: Given [Cl-].[Cl-].[Mg+2] [MgCl2] , respond with its Produced IMP.
Out: 0.60

Value source: patent US5874272A
